Test system: Shionogi mouse mammary carcinoma cells
Assay: In vitro androgenic/antiandrogenic activity: proliferation of Shionogi cells with or without DHT
Format: cell-based
Settings: read-out: Shionogi Antiandrogenic Activity IC50; DHT (0.3 nM)-stimulated cell number
Give measured pIC50 for each item. Keep answers brief.
One number for each entry, as −log10 of the molar value.

| input_smiles | target_or_system | pIC50 |
| --- | --- | --- |
| CC1(C)C(=O)N(c2ccc(C#N)c(Cl)c2)C(=S)N1CCCOc1ccc(-c2ccncc2)cc1 | Shionogi mouse mammary carcinoma cells | 8.37 |

For every item below, please supply its pIC50.
1. CC1(C)C(=O)N(c2ccc(C#N)c(C(F)(F)F)c2)C(=S)N1CCCOc1ccc(-c2ccncc2)cc1C(F)(F)F
2. CC1(C)C(=O)N(c2ccc(C#N)c(C(F)(F)F)c2)C(=S)N1CCCOc1ccc(-c2cc[n+]([O-])cc2)cc1.Cl
3. CC1(C)C(=O)N(c2ccc(C#N)c(C(F)(F)F)c2)C(=S)N1CCCOc1ccc(-c2cc[n+]([O-])cc2)cc1

-- reply
1. 8.42
2. 8.47
3. 7.77

---

Tested on: castrated (CX) immature male rats
Test: Systemic androgenic (agonistic) activity in orchidectomized (CX) immature male rats
Assay type: in vivo, rat
Conditions: 0.1 mg/rat/po, 7 days, seminal vesicles weight
attribute_measured: CX Agonistic activity % Stimulation SV (%)
Give bare numbers, in %.

Solved cases below.
| input_smiles | target_or_system | CX Agonistic activity % Stimulation SV, % |
| --- | --- | --- |
| Cc1c(N2C(=O)C(C)(C)N(CCCOc3ccc(-c4ccncc4)cn3)C2=S)ccc(C#N)c1Cl | castrated (CX) immature male rats | 75 |
| CC1(C)C(=O)N(c2ccc(C#N)c(C(F)(F)F)c2)C(=S)N1CCCOc1ccc2cccnc2c1 | castrated (CX) immature male rats | 2 |
| Cc1c(N2C(=O)N(CCCOc3ccc(-c4cc[n+]([O-])cc4)c(C(F)(F)F)c3)C(C)(C)C2=O)ccc(C#N)c1Cl | castrated (CX) immature male rats | 17 |
| Cc1c(N2C(=O)C(C)(C)N(CCCOc3ccc(-c4ccncc4)c(F)c3)C2=S)ccc(C#N)c1C(F)(F)F | castrated (CX) immature male rats | 58 |

-- ask Note CX Agonistic activity % Stimulation SV for the compound shown: Cc1c(N2C(=O)C(C)(C)N(CCCOc3ccc(-c4cccnc4)cc3F)C2=S)ccc(C#N)c1Cl
-- reply 18

---

Kindly state Human Androgen Receptor Binding RBA (%) R1881 = 100 for each of the entries shown.
Target: UniProtKB P10275
Test: Androgen receptor assay: [3H]R1881 displacement, cytosol of HEK-293 cells transfected with hAR (hydroxylapatite assay)
Type: binding
Details: relative binding affinity, R1881 = 100; […]
One number for each entry, in %.

Below are worked cases with known answers.
| input_smiles | target_or_system | measured |
| --- | --- | --- |
| Cc1c(N2C(=O)N(CCCOc3ccc(-c4cc[n+]([O-])cc4Cl)cc3)C(C)(C)C2=O)ccc(C#N)c1Cl | UniProtKB P10275 | 34.1 |
| Cc1c(N2C(=O)N(CCOc3ccc(-c4ccncc4)cc3)C(C)(C)C2=O)ccc(C#N)c1Cl | UniProtKB P10275 | 28.3 |
| Cc1c(N2C(=O)N(CCCOc3ccc(-c4ccncc4)c(F)c3)C(C)(C)C2=O)ccc(C#N)c1Cl | UniProtKB P10275 | 125 |
| Cc1cc(OCCCN2C(=O)N(c3ccc(C#N)c(Cl)c3)C(=O)C2(C)C)ccc1-c1cc[n+]([O-])cc1 | UniProtKB P10275 | 2.7 |
| Cc1ccc2cc(OCCCN3C(=O)N(c4ccc(C#N)c(C(F)(F)F)c4)C(=O)C3(C)C)ccc2[n+]1[O-] | UniProtKB P10275 | 0.6 |
| Cc1c(N2C(=O)N(CCCOc3ccc(-c4ccncc4)cc3)C(C)(C)C2=O)ccc(C#N)c1Cl | UniProtKB P10275 | 77.8 |
| CC1(C)C(=O)N(c2ccc(C#N)c(C(F)(F)F)c2)C(=S)N1CCCOc1ccc(-c2cc[n+]([O-])cc2)cc1.Cl | UniProtKB P10275 | 175 |
| CC1(C)C(=O)N(c2ccc(C#N)c(C(F)(F)F)c2)C(=S)N1CCCOc1ccc2ncncc2c1 | UniProtKB P10275 | 29.5 |

Below are 4 molecules. Give each one its Human Androgen Receptor Binding RBA (%) R1881 = 100.
1. Cc1c(N2C(=O)C(C)(C)N(CCCOc3ccc(-c4cccnc4)cc3F)C2=S)ccc(C#N)c1Cl
2. CC1(C)C(=O)N(c2ccc(C#N)c(C(F)(F)F)c2)C(=O)N1Cc1ccc(-c2cc[n+]([O-])cc2)c(F)c1
3. Cc1c(N2C(=O)C(C)(C)N(CCCOc3ccc(-c4ccncc4F)cc3)C2=S)ccc(C#N)c1C(F)(F)F
4. Cc1c(N2C(=O)C(C)(C)N(CCCOc3ccc(-c4ccncc4)cc3F)C2=S)ccc(C#N)c1Cl

-- reply
355
0.4
41.9
408

---

Target: Human Androgen Receptor (Homo sapiens (Human), UniProt P10275)
Sequence (P10275 whole entry): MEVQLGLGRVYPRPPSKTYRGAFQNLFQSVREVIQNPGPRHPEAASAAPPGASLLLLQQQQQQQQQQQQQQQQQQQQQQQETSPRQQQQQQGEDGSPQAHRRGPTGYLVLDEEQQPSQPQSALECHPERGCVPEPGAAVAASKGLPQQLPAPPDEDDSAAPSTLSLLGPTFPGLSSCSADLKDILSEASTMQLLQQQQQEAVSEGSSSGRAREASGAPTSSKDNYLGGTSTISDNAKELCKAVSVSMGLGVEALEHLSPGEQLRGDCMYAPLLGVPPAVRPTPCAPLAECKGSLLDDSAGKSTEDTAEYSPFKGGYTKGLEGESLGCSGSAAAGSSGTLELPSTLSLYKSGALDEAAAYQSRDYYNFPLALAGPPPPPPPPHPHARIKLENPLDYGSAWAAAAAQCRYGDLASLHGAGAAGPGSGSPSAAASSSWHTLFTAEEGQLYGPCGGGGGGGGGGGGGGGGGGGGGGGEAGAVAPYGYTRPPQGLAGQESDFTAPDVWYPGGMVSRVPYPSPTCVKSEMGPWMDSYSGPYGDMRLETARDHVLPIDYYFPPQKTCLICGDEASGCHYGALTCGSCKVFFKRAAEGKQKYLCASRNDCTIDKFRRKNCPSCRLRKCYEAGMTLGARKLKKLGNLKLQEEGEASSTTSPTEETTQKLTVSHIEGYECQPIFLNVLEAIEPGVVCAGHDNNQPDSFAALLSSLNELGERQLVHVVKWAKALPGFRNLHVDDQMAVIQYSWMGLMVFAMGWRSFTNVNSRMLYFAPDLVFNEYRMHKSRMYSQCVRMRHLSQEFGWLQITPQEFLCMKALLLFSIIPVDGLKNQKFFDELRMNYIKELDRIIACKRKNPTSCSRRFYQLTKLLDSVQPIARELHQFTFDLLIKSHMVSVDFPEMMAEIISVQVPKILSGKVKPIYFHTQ
Assay: Androgen receptor assay: [3H]R1881 displacement, cytosol of HEK-293 cells transfected with hAR (hydroxylapatite assay)
Assay type: binding
Settings: relative binding affinity, R1881 = 100; transfected cells
For each of the compounds below, state its Human Androgen Receptor Binding RBA (%) R1881 = 100.
Give bare numbers, in %.

Solved entries:
| compound | measured |
| --- | --- |
| CC1(C)C(=O)N(c2ccc(C#N)c(C(F)(F)F)c2)C(=O)N1Cc1ccc(-c2ccncc2)cc1 | 2.3 |
| CC1(C)C(=O)N(c2ccc(C#N)c(C(F)(F)F)c2)C(=S)N1CCCOc1ccc2c(ccc[n+]2[O-])c1 | 25.3 |
| CC1(C)C(=O)N(c2ccc(C#N)c(C(F)(F)F)c2)C(=S)N1CCCOc1ccc(CN2CCC(O)C2)cc1 (stereo not drawn) [EM-7365, reference compound] | 24 |
| CC1(C)C(=O)N(c2ccc(C#N)c(C(F)(F)F)c2)C(=O)N1CCCOc1ccc(-c2ccncc2)c(C(F)(F)F)c1 | 2.0 |
| CC1(C)C(=O)N(c2ccc(C#N)c(C(F)(F)F)c2)C(=O)N1Cc1ccc(-c2cccnc2)cc1 | 2.5 |

Hey, can you go through the list below and give me Human Androgen Receptor Binding RBA (%) R1881 = 100 for every item?
1. CC1(C)C(=O)N(c2ccc(C#N)c(Cl)c2)C(=O)N1CCCOc1ccc(-c2ccncc2F)cc1
2. Cc1c(N2C(=O)N(Cc3ccc(-c4cc[n+]([O-])cc4)cc3)C(C)(C)C2=O)ccc(C#N)c1Cl
3. Cc1c(N2C(=O)N(CCCOc3ccc(-c4ccncc4)c(Cl)c3)C(C)(C)C2=O)ccc(C#N)c1Cl
4. Cc1c(N2C(=O)N(CCCOc3ccc(-c4ccncc4)c(F)c3)C(C)(C)C2=O)ccc(C#N)c1F

-- reply
1. 5.5
2. 0.5
3. 197
4. 17.9

Please report Human Androgen Receptor Binding RBA (%) R1881 = 100 for every entry that follows.
1. Cc1c(N2C(=O)C(C)(C)N(CCCOc3ccc4cccnc4c3)C2=S)ccc(C#N)c1Cl
2. CC1(C)C(=O)N(c2ccc(C#N)c(C(F)(F)F)c2)C(=S)N1CCCOc1ccc(-c2ccnc(F)c2)cc1
3. Cc1c(N2C(=O)N(CCCOc3ccc(-c4cc[n+]([O-])cc4)c(F)c3)C(C)(C)C2=O)ccc(C#N)c1Cl

-- reply
1: 140.5; 2: 136; 3: 38.8

-- ask For Cc1c(N2C(=O)C(C)(C)N(CCCOc3ccc(-c4ccncc4)cc3F)C2=S)ccc(C#N)c1C(F)(F)F , write its Human Androgen Receptor Binding RBA (%) R1881 = 100.
-- reply 412

---

Biological target: Human Androgen Receptor (Homo sapiens (Human))
Test: Androgen receptor assay: [3H]R1881 displacement, cytosol of HEK-293 cells transfected with hAR (hydroxylapatite assay)
Format: binding
Conditions: relative binding affinity, R1881 = 100; […]
attribute_measured: Human Androgen Receptor Binding RBA (%) R1881 = 100
Answers are plain numbers, in %.

| compound | measured |
| --- | --- |
| Cc1c(N2C(=O)C(C)(C)N(CCCOc3ccc(-c4cncnc4)cc3)C2=S)ccc(C#N)c1Cl [EM-8685] | 144 |
| Cc1c(N2C(=O)N(CCCOc3ccc(-c4ccncc4)cc3F)C(C)(C)C2=O)ccc(C#N)c1Cl [EM-9297] | 101 |
| Cc1c(N2C(=O)N(CCCOc3ccc(-c4ccncc4)cc3C(F)(F)F)C(C)(C)C2=O)ccc(C#N)c1Cl [EM-9309] | 157 |
| Cc1c(N2C(=O)N(Cc3ccc(-c4ccncc4)cc3)C(C)(C)C2=O)ccc(C#N)c1Cl [EM-9343] | 6.1 |

Provide the reported Human Androgen Receptor Binding RBA (%) R1881 = 100 of each entry below, same order.
1. Cc1c(N2C(=O)C(C)(C)N(CCCOc3ccc(-c4ccnc(F)c4)cc3)C2=S)ccc(C#N)c1Cl [EM-8922]
2. Cc1c(N2C(=O)C(C)(C)N(CCCOc3ccc(Oc4ccc(Cl)nc4)nc3)C2=S)ccc(C#N)c1Cl [EM-8828]
3. Cc1c(N2C(=O)N(CCCCc3ccc(-c4ccncc4)cc3)C(C)(C)C2=O)ccc(C#N)c1Cl [EM-9336]
4. CC1(C)C(=O)N(c2ccc(C#N)c(C(F)(F)F)c2)C(=S)N1CCCOc1ccc2cccnc2c1 [EM-8991]
5. Cc1c(N2C(=O)N(CCCOc3ccc(-c4cc[n+]([O-])cc4)cc3C(F)(F)F)C(C)(C)C2=O)ccc(C#N)c1Cl [EM-9319]
6. Cc1c(N2C(=O)N(CCCOc3ccc(-c4ccncc4F)cc3)C(C)(C)C2=O)ccc(C#N)c1Cl [EM-9311]
7. CC1(C)C(=O)N(c2ccc(C#N)c(C(F)(F)F)c2)C(=S)N1CCCOc1ccc2cnccc2c1 [EM-9021]

-- reply
1. 414
2. 112
3. 32.3
4. 28.5
5. 9.6
6. 89.0
7. 166.8
